Target: hASCT1 (Homo sapiens, UniProt P43007)
Sequence (P43007 whole entry): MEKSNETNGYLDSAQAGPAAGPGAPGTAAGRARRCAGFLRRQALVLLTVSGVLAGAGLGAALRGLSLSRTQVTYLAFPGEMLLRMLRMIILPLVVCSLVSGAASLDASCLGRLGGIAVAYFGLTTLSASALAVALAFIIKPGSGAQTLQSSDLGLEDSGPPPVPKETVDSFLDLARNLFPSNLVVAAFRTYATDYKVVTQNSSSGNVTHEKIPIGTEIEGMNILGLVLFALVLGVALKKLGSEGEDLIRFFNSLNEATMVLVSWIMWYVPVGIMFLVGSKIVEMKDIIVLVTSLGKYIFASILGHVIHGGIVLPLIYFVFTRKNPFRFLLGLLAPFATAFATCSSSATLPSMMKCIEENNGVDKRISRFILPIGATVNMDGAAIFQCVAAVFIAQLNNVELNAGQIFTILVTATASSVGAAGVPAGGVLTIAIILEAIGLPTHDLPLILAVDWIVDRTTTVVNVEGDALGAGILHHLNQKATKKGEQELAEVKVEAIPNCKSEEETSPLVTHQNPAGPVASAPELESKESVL
Test: Electrophysiology: SLC1 specificity, anion current in transfected HEK293 cells
Conditions: HEK293 cells, 0 mV, 10 mM alanine and 130 mM NaSCN internal; No current = no outward current up to highest concentration tested (§ 20-50, || 100-400, # 1500-2500 µM); read-out: Binding affinity Ki
measured.property: Ki (µM)

- N[C@@H](COC(=O)c1ccc(NC(=O)c2ccccc2)cc1)C(=O)O [ERA-21]: 11.6

A: Cc1ccccc1-c1ccc(C(=O)O[C@@H]2CN[C@H](C(=O)O)C2)cc1 [ERA-6]
B: O=C(Nc1ccc(C(=O)O[C@@H]2CN[C@H](C(=O)O)C2)cc1)c1ccc(C(F)(F)F)cc1 [ERA-11]
C: O=C(O[C@@H]1CN[C@H](C(=O)O)C1)c1ccc(Oc2ccccc2)cc1 [ERA-16]
D: O=C(O[C@@H]1CN[C@H](C(=O)O)C1)c1ccc(-c2ccc(C(F)(F)F)cc2)cc1 [ERA-5]
# rank by Ki, ascending (min first) Ranked list of labels, please, in the requested order.
D, A, C, B

====

Biological target: rASCT2 (Rattus norvegicus)
Sequence (D3ZJ25 whole entry): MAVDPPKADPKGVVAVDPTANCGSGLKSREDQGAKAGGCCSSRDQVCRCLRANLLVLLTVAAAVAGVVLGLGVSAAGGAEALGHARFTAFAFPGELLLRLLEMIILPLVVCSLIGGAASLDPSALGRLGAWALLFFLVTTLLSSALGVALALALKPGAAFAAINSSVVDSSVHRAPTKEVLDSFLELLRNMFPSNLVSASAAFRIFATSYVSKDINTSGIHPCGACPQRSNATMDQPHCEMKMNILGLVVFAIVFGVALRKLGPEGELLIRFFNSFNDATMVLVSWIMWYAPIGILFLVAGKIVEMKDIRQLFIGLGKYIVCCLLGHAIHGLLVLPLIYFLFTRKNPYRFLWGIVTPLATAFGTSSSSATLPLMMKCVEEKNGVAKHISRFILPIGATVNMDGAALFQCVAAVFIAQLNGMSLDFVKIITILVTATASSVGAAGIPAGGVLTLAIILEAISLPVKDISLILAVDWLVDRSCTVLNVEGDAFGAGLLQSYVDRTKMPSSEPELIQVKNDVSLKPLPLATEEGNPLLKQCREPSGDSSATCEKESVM
Assay: Electrophysiology: inhibition of leak anion current in transfected HEK293 cells
Details: HEK293 cells, 0 mV, 130 mM NaSCN internal, 140 mM NaCl external; No current = no inhibition of anion leak current up to highest concentration tested (§ 20-50, || 100-400, # 1500-2500 µM); read-out: Binding affinity Ki (apparent Ki)
Method: Cell culture and transfection Human embryonic kidney 293 (HEK293, ATCC CRL -11268) cells were cultured in DMEM media supplemented with 10% (v/v) fetal bovine serum (FBS), 2 mM glutamine, 1% penicillin streptomycin solution, 1 mM sodium pyruvate and non -essential amino acids. […] Cells were analyzed using electrophysiological techniques 24-40 hours after transfection. […]
measured.property: Ki (µM)

- O=C(O[C@@H]1CN[C@H](C(=O)O)C1)c1ccc(-c2ccc(F)cc2)cc1 [ERA-4]: 0.65
- N[C@@H](COC(=O)c1cccnc1)C(=O)O [ERA-28]: 266
- O=C(O[C@H]1CN[C@H](C(=O)O)C1)c1ccc(-c2ccccc2)cc1 [Lt-BPE]: 232

1: Cc1ccccc1-c1ccc(C(=O)O[C@@H]2CN[C@H](C(=O)O)C2)cc1 [ERA-6]
2: N[C@@H](COC(=O)c1ccc(NC(=O)c2ccccc2)cc1)C(=O)O [ERA-21]
3: N[C@@H](COC(=O)c1ccccc1)C(=O)O [ERA-25]
# rank by Ki, ascending (min first) Ranked list of labels, please, in the requested order.
1, 2, 3
(1: 0.97 µM, 2: 4.33 µM, 3: 290 µM)

====

Molecular target: UniProtKB O00341
Sequence (O00341 whole entry): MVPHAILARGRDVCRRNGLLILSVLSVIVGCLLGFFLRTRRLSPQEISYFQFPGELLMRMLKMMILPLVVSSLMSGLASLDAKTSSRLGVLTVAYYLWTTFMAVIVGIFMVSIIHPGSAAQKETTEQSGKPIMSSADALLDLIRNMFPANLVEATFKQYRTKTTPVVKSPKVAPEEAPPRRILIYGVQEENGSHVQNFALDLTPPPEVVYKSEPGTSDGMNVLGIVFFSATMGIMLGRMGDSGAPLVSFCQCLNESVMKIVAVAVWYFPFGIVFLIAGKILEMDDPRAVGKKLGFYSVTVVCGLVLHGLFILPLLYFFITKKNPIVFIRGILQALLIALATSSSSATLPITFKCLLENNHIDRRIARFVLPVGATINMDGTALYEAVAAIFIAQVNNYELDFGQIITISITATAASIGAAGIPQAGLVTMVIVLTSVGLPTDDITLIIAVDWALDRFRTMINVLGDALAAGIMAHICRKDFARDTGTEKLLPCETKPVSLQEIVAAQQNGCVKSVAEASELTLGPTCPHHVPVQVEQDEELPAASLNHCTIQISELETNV
Assay: Electrophysiology: SLC1 specificity, anion current in transfected HEK293 cells
Details: HEK293 cells, 0 mV, 10 mM glutamate and 130 mM NaSCN internal; No current = no outward current up to highest concentration tested (§ 20-50, || 100-400, # 1500-2500 µM); read-out: Binding affinity Ki
measured.property: Ki (µM)

Worked cases, Ki given:
• O=C(O[C@@H]1CN[C@H](C(=O)O)C1)c1ccc(Oc2ccccc2)cc1 = 6.17
• O=C(O[C@@H]1CN[C@H](C(=O)O)C1)c1ccc(-c2ccccc2)cc1 [Lc-BPE, L-cis hydroxyproline biphenyl ester] = 2.22
• Cc1ccccc1-c1ccc(C(=O)O[C@@H]2CN[C@H](C(=O)O)C2)cc1 = 2.5

1: N[C@@H](COC(=O)c1ccc(NC(=O)c2ccccc2)cc1)C(=O)O
2: O=C(O[C@@H]1CN[C@H](C(=O)O)C1)c1ccc(-c2ccc(C(F)(F)F)cc2)cc1
In the pair 1 and 2 , the larger recorded Ki belongs to which? Your choice should be expressed through its label.
1
(1: 21.3 µM, 2: 1.05 µM)
